# experimental.target: CDK7/Cyclin H/MNAT1 (Homo sapiens, UniProt P51946+P50613+P51948)
# Sequence (P51946 whole entry): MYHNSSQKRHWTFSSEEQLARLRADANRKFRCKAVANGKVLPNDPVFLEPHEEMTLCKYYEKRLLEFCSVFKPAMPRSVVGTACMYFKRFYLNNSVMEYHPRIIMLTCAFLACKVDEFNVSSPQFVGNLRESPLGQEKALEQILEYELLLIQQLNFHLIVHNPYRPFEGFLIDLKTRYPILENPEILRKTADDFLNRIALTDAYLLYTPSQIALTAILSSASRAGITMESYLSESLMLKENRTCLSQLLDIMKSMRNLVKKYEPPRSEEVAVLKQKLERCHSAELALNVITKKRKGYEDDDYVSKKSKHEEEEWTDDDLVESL
# Sequence (P50613 whole entry): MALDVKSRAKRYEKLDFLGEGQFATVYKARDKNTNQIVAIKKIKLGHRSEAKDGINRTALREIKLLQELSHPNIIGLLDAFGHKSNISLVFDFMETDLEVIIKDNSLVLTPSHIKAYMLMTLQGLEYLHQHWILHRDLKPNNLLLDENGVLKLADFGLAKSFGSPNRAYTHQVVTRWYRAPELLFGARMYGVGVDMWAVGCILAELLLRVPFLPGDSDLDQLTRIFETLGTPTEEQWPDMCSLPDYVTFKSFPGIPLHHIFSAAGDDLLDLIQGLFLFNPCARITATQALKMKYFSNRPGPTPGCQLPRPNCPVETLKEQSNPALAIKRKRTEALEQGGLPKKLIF
# Sequence (P51948 whole entry): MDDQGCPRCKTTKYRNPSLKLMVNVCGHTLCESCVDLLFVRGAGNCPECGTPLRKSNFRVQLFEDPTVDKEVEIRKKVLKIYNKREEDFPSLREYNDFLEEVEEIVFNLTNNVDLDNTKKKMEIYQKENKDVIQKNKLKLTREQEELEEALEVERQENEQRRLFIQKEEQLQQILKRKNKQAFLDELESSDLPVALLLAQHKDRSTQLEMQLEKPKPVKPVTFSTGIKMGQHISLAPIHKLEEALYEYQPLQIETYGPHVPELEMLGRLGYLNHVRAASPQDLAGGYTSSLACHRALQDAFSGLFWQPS
# test: Inhibition of human His-tagged CDK7/cyclin H/MNAT1 expressed in baculovirus infected insect cells preincubated for 10 mins followed by substrate and ATP addition and measured after 60 mins by ADP-Glo kinase assay
# experimental.setup: insect cell
reported.endpoint: IC50 (nM)

INSERT INTO results (compound, experimental_target, units_label, quantitative_result) VALUES
  ('CP(C)(=O)c1cccc2c(-c3nc(NC4CC5(CCNC5)C4)nc4ccsc34)c[nH]c12 (stereo unspecified)', 'CDK7/Cyclin H/MNAT1 (Homo sapiens, UniProt P51946+P50613+P51948)', 'nM', 72.4);
